The measurements presented in this section are drawn from paper PMC8865417.

molecular target: h5-HT2A receptor (Homo sapiens); construct: expressed in transfected cells; host or cells: HEK 293 cells (membrane preparations); experiment: Radioligand binding at h5-HT2A receptor ([3H]ketanserin); conditions: binding ratio
Sequence (P28223 whole entry): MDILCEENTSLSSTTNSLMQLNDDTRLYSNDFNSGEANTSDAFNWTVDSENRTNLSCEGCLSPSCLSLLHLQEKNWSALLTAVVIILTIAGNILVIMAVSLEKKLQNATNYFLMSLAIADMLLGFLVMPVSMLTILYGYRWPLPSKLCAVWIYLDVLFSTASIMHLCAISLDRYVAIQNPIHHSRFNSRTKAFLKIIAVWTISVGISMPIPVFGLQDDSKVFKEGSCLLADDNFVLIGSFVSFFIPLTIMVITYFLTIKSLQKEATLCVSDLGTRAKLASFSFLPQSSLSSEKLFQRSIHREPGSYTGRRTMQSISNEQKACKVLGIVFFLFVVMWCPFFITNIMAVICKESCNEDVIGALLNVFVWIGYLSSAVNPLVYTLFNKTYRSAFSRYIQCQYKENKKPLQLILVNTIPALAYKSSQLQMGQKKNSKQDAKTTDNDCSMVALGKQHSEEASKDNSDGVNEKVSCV
measurement name: Selectivity 5-HT2A vs. 5-HT2C
Enter the number alone.

>  <smiles repr>
COc1cc(CCN)cc(OC)c1OCC(F)(F)F

>  <experimental value>
0.9

$$$$

q: Quick one: Selectivity 5-HT2A vs. 5-HT2C of "COc1cc(CCN)cc(OC)c1OC(C)C" ?
a: 0.9

q: Quick one: Selectivity 5-HT2A vs. 5-HT2C of "COc1cc(CCN)cc(OC)c1OCC(F)F" ?
a: 0.9
